biological target: Bifunctional protein GlmU (Mycobacterium tuberculosis (strain ATCC 25618 / H37Rv)); test: inhibition of mycobacterial GlmU enzyme – biochemical, glucosamine-1-phosphate acetyltransferase (AID 1376);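 also: 0% = complete reaction with vehicle and 100% = reaction without substrate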; settings: M. tuberculosis GlmU acetyltransferase enzyme assay;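 tested at 30 µM in the primary screen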
About 530 (0.24%) of roughly 220,000 compounds were called active. Rule as the data show it: active = inhibition above about 13%; inconclusive = no clear call, values can overlap the other calls; inactive = below that. The full list was thinned out, with actives kept by preference. Entries with a potency or affinity are not part of this list.
Labels: 1.0 (active), 0.0 (inactive)

{"compound": "COCCCNc1nc2nonc2nc1N1CCN(C2CCCC2)CC1", "assayed.system": "Bifunctional protein GlmU (Mycobacterium tuberculosis (strain ATCC 25618 / H37Rv))", "group.label": 0.0}
{"compound": "O=C(Nc1ccccc1F)C1CCN(C(=O)Cc2ccccc2)CC1", "assayed.system": "Bifunctional protein GlmU (Mycobacterium tuberculosis (strain ATCC 25618 / H37Rv))", "group.label": 1.0}
{"compound": "O=C(CN1C(=O)NC2(CCCC2)C1=O)Nc1cccc(-c2nnc3n2CCCCC3)c1", "assayed.system": "Bifunctional protein GlmU (Mycobacterium tuberculosis (strain ATCC 25618 / H37Rv))", "group.label": 0.0}
{"compound": "CCOC(=O)Cc1csc(NC(=O)c2ccco2)n1", "assayed.system": "Bifunctional protein GlmU (Mycobacterium tuberculosis (strain ATCC 25618 / H37Rv))", "group.label": 0.0}
{"compound": "O=C(O)C1CCCCC1C(=O)Nc1ccccc1F (stereo unspecified)", "assayed.system": "Bifunctional protein GlmU (Mycobacterium tuberculosis (strain ATCC 25618 / H37Rv))", "group.label": 1.0}
{"compound": "O=C(CC1Sc2ccccc2NC1=O)Nc1cccc(-c2nnc3n2CCCCC3)c1 (stereo unspecified)", "assayed.system": "Bifunctional protein GlmU (Mycobacterium tuberculosis (strain ATCC 25618 / H37Rv))", "group.label": 1.0}

* * *

biological target: Bifunctional protein GlmU (Mycobacterium tuberculosis (strain ATCC 25618 / H37Rv)); assay: inhibition of mycobacterial GlmU enzyme – biochemical, glucosamine-1-phosphate acetyltransferase (AID 1376);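 also: 0% = complete reaction with vehicle and 100% = reaction without substrate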; conditions: M. tuberculosis GlmU acetyltransferase enzyme assay; active compounds read high;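 tested at 30 µM in the primary screen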
The campaign covered roughly 220,000 compounds. About 530 (0.24%) were called active. Only a selection was taken, and actives are over-represented in it overall. Potency and affinity values are given separately.
reported.metric: inhibition (%)

{"compound": "Cc1ccccc1OCc1nc(C#N)c(N2CCCC2)o1", "assayed.system": "Bifunctional protein GlmU (Mycobacterium tuberculosis (strain ATCC 25618 / H37Rv))", "reported.metric": "inhibition", "unit.symbol": "%", "value.observed": -2.21}
{"compound": "COc1ccc(CN2C(=O)/C(=C/c3ccc(-c4ccc(Cl)c(C(=O)O)c4)o3)SC2=S)cc1", "assayed.system": "Bifunctional protein GlmU (Mycobacterium tuberculosis (strain ATCC 25618 / H37Rv))", "reported.metric": "inhibition", "unit.symbol": "%", "value.observed": 9.33}
{"compound": "COc1ccc(Sc2ccc(/C=C3\\C(=O)NN(c4ccccc4)C3=O)o2)cc1", "assayed.system": "Bifunctional protein GlmU (Mycobacterium tuberculosis (strain ATCC 25618 / H37Rv))", "reported.metric": "inhibition", "unit.symbol": "%", "value.observed": 7.34}
{"compound": "CC1=NOC(=O)/C1=C\\c1ccc(-c2ccc(Cl)c(C(=O)O)c2)o1", "assayed.system": "Bifunctional protein GlmU (Mycobacterium tuberculosis (strain ATCC 25618 / H37Rv))", "reported.metric": "inhibition", "unit.symbol": "%", "value.observed": 19.4}
{"compound": "O=C(CCn1c(=O)[nH]c2ccccc2c1=O)N1CC=C(c2ccccc2)CC1", "assayed.system": "Bifunctional protein GlmU (Mycobacterium tuberculosis (strain ATCC 25618 / H37Rv))", "reported.metric": "inhibition", "unit.symbol": "%", "value.observed": 1.07}
{"compound": "OCCN1CCN(CC(O)C(F)(F)F)CC1 (configuration not stated)", "assayed.system": "Bifunctional protein GlmU (Mycobacterium tuberculosis (strain ATCC 25618 / H37Rv))", "reported.metric": "inhibition", "unit.symbol": "%", "value.observed": 0.82}
{"compound": "CCCCC1(C)OC(=O)C(=Cc2ccc(-c3ccc(Cl)c(C(=O)O)c3)o2)C(=O)O1 (configuration not stated)", "assayed.system": "Bifunctional protein GlmU (Mycobacterium tuberculosis (strain ATCC 25618 / H37Rv))", "reported.metric": "inhibition", "unit.symbol": "%", "value.observed": 0.45}

* * *

In this section, each of the compounds is paired with its reported inhibition.
biological target: Bifunctional protein GlmU (Mycobacterium tuberculosis (strain ATCC 25618 / H37Rv)); assay: inhibition of mycobacterial GlmU enzyme – biochemical, glucosamine-1-phosphate acetyltransferase (AID 1376);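 also: 0% = complete reaction with vehicle and 100% = reaction without substrate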; conditions: M. tuberculosis GlmU acetyltransferase enzyme assay; active compounds read high;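 tested at 30 µM in the primary screen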
About 530 (0.24%) of roughly 220,000 compounds were called active. Shown is part of a subset that was picked to be rich in actives. Measured potencies and affinities stand elsewhere.

{"compound": "Cc1ccc(S(=O)(=O)Nn2c(O)c(C=C3N=c4ccccc4=N3)sc2=S)cc1", "assayed.system": "Bifunctional protein GlmU (Mycobacterium tuberculosis (strain ATCC 25618 / H37Rv))", "inhibition / %": 0.22}
{"compound": "COc1ccc(-c2c3c(=O)n(C)c(=O)n(C)c3cn2-c2ccccc2)cc1", "assayed.system": "Bifunctional protein GlmU (Mycobacterium tuberculosis (strain ATCC 25618 / H37Rv))", "inhibition / %": -0.39}
{"compound": "O=S(=O)(Nn1c(O)c(C=C2N=c3ccccc3=N2)sc1=S)c1ccccc1", "assayed.system": "Bifunctional protein GlmU (Mycobacterium tuberculosis (strain ATCC 25618 / H37Rv))", "inhibition / %": 7.14}
{"compound": "COc1cc(C(=O)Nn2c(O)c(C3=c4ccccc4=NC3=O)sc2=S)ccc1O", "assayed.system": "Bifunctional protein GlmU (Mycobacterium tuberculosis (strain ATCC 25618 / H37Rv))", "inhibition / %": 4.03}
{"compound": "O=C1CC2(CCCCC2)Oc2ccc(Cl)cc21", "assayed.system": "Bifunctional protein GlmU (Mycobacterium tuberculosis (strain ATCC 25618 / H37Rv))", "inhibition / %": -3.86}
{"compound": "Cc1cc(C(F)F)n2ncc(C(=O)NCc3ccc(F)cc3)c2n1", "assayed.system": "Bifunctional protein GlmU (Mycobacterium tuberculosis (strain ATCC 25618 / H37Rv))", "inhibition / %": 3.5}
{"compound": "Cc1cc(C(F)F)n2ncc(C(=O)NCc3ccccc3)c2n1", "assayed.system": "Bifunctional protein GlmU (Mycobacterium tuberculosis (strain ATCC 25618 / H37Rv))", "inhibition / %": 1.36}
{"compound": "CC(C)OC(=O)CSc1nc(N)c(C#N)c(-c2ccco2)c1C#N", "assayed.system": "Bifunctional protein GlmU (Mycobacterium tuberculosis (strain ATCC 25618 / H37Rv))", "inhibition / %": -3.1}
{"compound": "O=C1N=c2ccccc2=C1c1sc(NS(=O)(=O)c2ccccc2)nc1O", "assayed.system": "Bifunctional protein GlmU (Mycobacterium tuberculosis (strain ATCC 25618 / H37Rv))", "inhibition / %": 13.8}
{"compound": "COc1ccc(N2C(=O)CC(C3CCCO3)C2=O)cc1 (stereo unspecified)", "assayed.system": "Bifunctional protein GlmU (Mycobacterium tuberculosis (strain ATCC 25618 / H37Rv))", "inhibition / %": 6.39}
{"compound": "O=C1N=c2ccccc2=C1c1sc(=S)n(NC(=O)c2ccccc2)c1O", "assayed.system": "Bifunctional protein GlmU (Mycobacterium tuberculosis (strain ATCC 25618 / H37Rv))", "inhibition / %": 13.4}

* * *

target: Bifunctional protein GlmU (Mycobacterium tuberculosis (strain ATCC 25618 / H37Rv)); assay: inhibition of mycobacterial GlmU enzyme – biochemical, glucosamine-1-phosphate acetyltransferase (AID 1376);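 also: 0% = complete reaction with vehicle and 100% = reaction without substrate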; conditions: M. tuberculosis GlmU acetyltransferase enzyme assay; active compounds read high;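 tested at 30 µM in the primary screen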
The campaign covered roughly 220,000 compounds. About 530 (0.24%) were called active. The sample as a whole holds a higher share of actives than the screen did. Results with a measured potency or affinity are listed apart.
In this section, each of the compounds is paired with its reported inhibition.

{"chemical.string": "CCCc1c(C)c(C#N)c2nc3ccccc3n2c1NCCCN1CCOCC1", "assayed.system": "Bifunctional protein GlmU (Mycobacterium tuberculosis (strain ATCC 25618 / H37Rv))", "inhibition / %": 11.7}
{"chemical.string": "CC(C)C(=O)N1CCN(c2ccc(NC(=O)c3cccs3)cc2)CC1", "assayed.system": "Bifunctional protein GlmU (Mycobacterium tuberculosis (strain ATCC 25618 / H37Rv))", "inhibition / %": -0.11}
{"chemical.string": "CC(C)(C)OC(=O)N/N=C\\c1ccc[nH]1", "assayed.system": "Bifunctional protein GlmU (Mycobacterium tuberculosis (strain ATCC 25618 / H37Rv))", "inhibition / %": -8.2}
{"chemical.string": "CCOc1ccc(OCC(=O)c2c(O)c3ccccc3oc2=O)cc1", "assayed.system": "Bifunctional protein GlmU (Mycobacterium tuberculosis (strain ATCC 25618 / H37Rv))", "inhibition / %": 14.2}
{"chemical.string": "Cc1ccc(OCC(=O)c2c(O)c3ccccc3oc2=O)cc1C", "assayed.system": "Bifunctional protein GlmU (Mycobacterium tuberculosis (strain ATCC 25618 / H37Rv))", "inhibition / %": 0.96}
{"chemical.string": "COC(=O)c1ccccc1NC(=O)N1CCN(c2ccccc2)CC1", "assayed.system": "Bifunctional protein GlmU (Mycobacterium tuberculosis (strain ATCC 25618 / H37Rv))", "inhibition / %": -3.35}
{"chemical.string": "CC(C)N1CCc2c(sc(NC(=O)c3cc(-c4cccs4)nc4ccccc34)c2C(N)=O)C1", "assayed.system": "Bifunctional protein GlmU (Mycobacterium tuberculosis (strain ATCC 25618 / H37Rv))", "inhibition / %": -3.1}
{"chemical.string": "COC(=O)c1c(NC(=O)c2nc3ccccc3s2)sc2c1CCN(C(C)=O)C2", "assayed.system": "Bifunctional protein GlmU (Mycobacterium tuberculosis (strain ATCC 25618 / H37Rv))", "inhibition / %": -1.93}
{"chemical.string": "CCc1ccc(OCC(=O)c2c(O)c3ccccc3oc2=O)cc1", "assayed.system": "Bifunctional protein GlmU (Mycobacterium tuberculosis (strain ATCC 25618 / H37Rv))", "inhibition / %": -0.96}
{"chemical.string": "Cc1cc([N+](=O)[O-])ccc1N=Nc1c(N)[nH]n(-c2ccccc2)c1=O", "assayed.system": "Bifunctional protein GlmU (Mycobacterium tuberculosis (strain ATCC 25618 / H37Rv))", "inhibition / %": -3.05}
{"chemical.string": "COc1ccc(OCC(=O)c2c(O)c3ccccc3oc2=O)cc1", "assayed.system": "Bifunctional protein GlmU (Mycobacterium tuberculosis (strain ATCC 25618 / H37Rv))", "inhibition / %": 13.8}

Values compiled from PubChem BioAssay AID1376.
